Test system: P. aeruginosa ATCC 27853
assayRemarks: microbe, parasite or virus in culture
Type: cell-based
testContext: Pseudomonas aeruginosa, ATCC27853, read-out: Minimum inhibitory concentration, P. aeruginosa ATCC 27853
Property: MIC; scope: individual compounds

Below are worked cases with known answers.
compound	property	reported
O=C(NCCCN1CCN(C(=O)N[C@@H](C(=O)N[C@H]2Cc3ccc(F)c(C(=O)O)c3OB2O)c2cc(F)c(O)c(O)c2Cl)C(=O)C1=O)c1cc(F)nc(F)c1 (racemic)	MIC	2 to 4 µg/mL
O=C(CN1CCN(C(=O)NC(C(=O)N[C@H]2Cc3ccc(F)c(C(=O)O)c3OB2O)c2cc(F)c(O)c(O)c2Cl)C(=O)C1=O)Nc1ccncc1 (some centres unmarked)	MIC	< 1 µg/mL
O=C(NCCCN1CCN(C(=O)NC(C(=O)N[C@H]2Cc3ccc(F)c(C(=O)O)c3OB2O)c2cc(F)c(O)c(O)c2Cl)C(=O)C1=O)c1cc(O)c(F)c(O)c1F (some centres unmarked)	MIC	< 1 µg/mL
O=C(NCCN1CCN(C(=O)NC(C(=O)N[C@H]2Cc3ccc(F)c(C(=O)O)c3OB2O)c2ccc(P(=O)(O)O)cc2)C(=O)C1=O)c1ccc(O)c(O)c1Cl (some centres unmarked)	MIC	< 1 µg/mL
Nc1cc(CN2CCC(N3CCN(C(=O)N[C@@H](C(=O)N[C@H]4Cc5ccc(F)c(C(=O)O)c5OB4O)c4cc(F)c(O)c(O)c4Cl)C3=O)CC2)ccn1	MIC	< 1 µg/mL
Cc1cnccc1C(=O)NCCCN1CCN(C(=O)NC(C(=O)N[C@H]2Cc3ccc(F)c(C(=O)O)c3OB2O)c2cc(F)c(O)c(O)c2Cl)C(=O)C1=O (some centres unmarked)	MIC	< 1 µg/mL
O=C(O)c1c(F)ccc2c1OB(O)[C@@H](NC(=O)[C@H](NC(=O)N1CCN(C3CCN(C(=O)c4cccc(O)c4F)CC3)C1=O)c1cc(F)c(O)c(O)c1Cl)C2 (single isomer, unassigned)	MIC	< 1 µg/mL
Cc1cc(C(=O)NCCCN2CCN(C(=O)N[C@@H](C(=O)N[C@H]3Cc4ccc(F)c(C(=O)O)c4OB3O)c3cc(F)c(O)c(O)c3Cl)C(=O)C2=O)ccn1	MIC	2 to 4 µg/mL
O=C(O)c1c(F)ccc2c1OB(O)[C@@H](NC(=O)[C@H](NC(=O)N1CCN(C3CCN(C(=O)c4c(F)ccc(O)c4Cl)CC3)C1=O)c1cc(F)c(O)c(O)c1Cl)C2 (single isomer, unassigned)	MIC	< 1 µg/mL
O=C(NCCCS(=O)(=O)N1CCN(C(=O)NC(C(=O)N[C@H]2Cc3ccc(F)c(C(=O)O)c3OB2O)c2cc(F)c(O)c(O)c2Cl)C1=O)Nc1cccnc1 (some centres unmarked)	MIC	2 to 4 µg/mL

Suppose we examine the compound O=C(NCCCN1CCN(C(=O)NC(C(=O)N[C@H]2Cc3ccc(F)c(C(=O)O)c3OB2O)c2cc(F)c(O)c(O)c2Cl)C(=O)C1=O)c1ccc(O)c(F)c1F (some centres unmarked) ; what MIC value has been reported?
2 to 4 µg/mL

====

targetUnderTest: PBP3 from Escherichia coli (K-12) (Escherichia coli, UniProt P0AD68)
Sequence (P0AD68 1-577): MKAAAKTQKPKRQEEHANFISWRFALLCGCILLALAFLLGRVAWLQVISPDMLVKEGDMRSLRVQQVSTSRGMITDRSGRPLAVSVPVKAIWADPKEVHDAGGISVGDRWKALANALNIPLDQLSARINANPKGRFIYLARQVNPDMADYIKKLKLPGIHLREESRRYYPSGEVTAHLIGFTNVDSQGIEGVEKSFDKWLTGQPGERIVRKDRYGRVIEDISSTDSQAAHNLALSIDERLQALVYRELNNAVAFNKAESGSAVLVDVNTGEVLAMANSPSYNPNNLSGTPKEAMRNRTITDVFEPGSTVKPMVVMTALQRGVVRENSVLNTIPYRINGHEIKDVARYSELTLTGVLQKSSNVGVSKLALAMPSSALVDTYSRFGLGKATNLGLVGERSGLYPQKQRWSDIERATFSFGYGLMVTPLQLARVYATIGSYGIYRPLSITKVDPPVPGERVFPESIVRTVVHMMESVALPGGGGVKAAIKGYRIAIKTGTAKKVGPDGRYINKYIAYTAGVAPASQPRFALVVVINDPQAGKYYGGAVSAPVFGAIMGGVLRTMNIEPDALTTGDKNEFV
assayRemarks: Bocillin-FL fluorescence polarization competition binding, E. coli PBP3
pEC50: −log10 of the molar value.
property: pEC50

Below are worked cases with known answers.
compound	pEC50
O=C(NCCN1CCN(C(=O)NC(C(=O)N[C@H]2Cc3ccc(F)c(C(=O)O)c3OB2O)c2cc(F)c(O)c(O)c2Cl)C(=O)C1=O)c1ccc(O)cc1 (stereo partly drawn)	> 5.00
CS(=O)(=O)N1CCN(C(=O)NC(C(=O)N[C@H]2Cc3cccc(C(=O)O)c3OB2O)c2ccc(P(=O)(O)O)c(O)c2)C1=O (stereo partly drawn)	> 5.00
N#Cc1cccc(C(=O)N[C@@H](C(=O)N[C@H]2Cc3cccc(C(=O)O)c3OB2O)c2ccc(P(=O)(O)O)cc2)n1	> 5.00
O=C(NCCCN1CCN(C(=O)NC(C(=O)N[C@H]2Cc3ccc(F)c(C(=O)O)c3OB2O)c2cc(F)c(O)c(O)c2Cl)C(=O)C1=O)c1ccc(O)c(Cl)c1F (stereo partly drawn)	> 5.00
O=C(CN1CCN(C(=O)NC(C(=O)N[C@H]2Cc3ccc(F)c(C(=O)O)c3OB2O)c2cc(F)c(O)c(O)c2Cl)C(=O)C1=O)Nc1ccncc1 (stereo partly drawn)	> 5.00

Give recorded pEC50 with PBP3 from Escherichia coli (K-12) (Escherichia coli, UniProt P0AD68) for the following compound: O=C(NCCCS(=O)(=O)N1CCN(C(=O)NC(C(=O)N[C@H]2Cc3ccc(F)c(C(=O)O)c3OB2O)c2cc(F)c(O)c(O)c2Cl)C1=O)c1ccncc1 (stereo partly drawn)
> 5.00

====

Test system: N. gonorrhoeae WHO M
assayRemarks: Liquid broth MIC in Fastidious broth
testContext: Neisseria gonorrhoeae, read-out: Minimum Inhibitory Concentration (MIC), N. gonorrhoeae WHO M
Property: MIC; scope: individual compounds

Suppose we examine the compound CN1CCN(C(=O)NC(C(=O)N[C@H]2Cc3cccc(C(=O)O)c3OB2O)c2ccc(P(=O)(O)O)cc2)C1=O (stereo partly drawn) [Example 41] ; what MIC value has been reported?
< 1 µg/mL

Please answer likewise for CCN1CCN(C(=O)NC(C(=O)N[C@H]2Cc3cccc(C(=O)O)c3OB2O)c2c(F)cc(P(=O)(O)O)cc2F)C(=O)C1=O (stereo partly drawn) [Example 25]
< 1 µg/mL

Please answer likewise for O=C(CN1CCN(C(=O)NC(C(=O)N[C@H]2Cc3ccc(F)c(C(=O)O)c3OB2O)c2cc(F)c(O)c(O)c2Cl)C(=O)C1=O)NCc1cccnc1 (stereo partly drawn) [Example 240]
4 to 8 µg/mL

Please answer likewise for O=C(O)c1cccc2c1OB(O)[C@@H](NC(=O)C(NC(=O)N1CCCC1=O)c1ccc(P(=O)(O)O)cc1)C2 (stereo partly drawn) [Example 57]
< 1 µg/mL

Please answer likewise for CC(=O)N1CCC[C@@H]1C(=O)N[C@H](C(=O)N[C@H]1Cc2cccc(C(=O)O)c2OB1O)c1ccc(P(=O)(O)O)cc1 [Example 33]
4 to 8 µg/mL

====

Tested on: N. gonorrhoeae WHO K
assayRemarks: Liquid broth MIC in Fastidious broth
testContext: Neisseria gonorrhoeae, read-out: Minimum Inhibitory Concentration (MIC), N. gonorrhoeae WHO K
property: MIC

Below are worked cases with known answers.
molecule	MIC
O=C(O)c1cccc2c1OB(O)[C@@H](NC(=O)[C@H](NC(=O)c1cnc3n(c1=O)CCS3)c1ccc(P(=O)(O)O)cc1)C2 (single isomer, unassigned) [Example 197]	16 to 32 µg/mL
O=C(NCCN1CCN(C(=O)NC(C(=O)N[C@H]2Cc3ccc(F)c(C(=O)O)c3OB2O)c2cc(F)c(O)c(O)c2Cl)C(=O)C1=O)Nc1ccc(O)cc1 (stereo partly drawn) [Example 219]	> 64 µg/mL

# next molecule below
Suppose we examine the molecule CC(=O)N1CCC[C@H]1C(=O)NC(C(=O)N[C@H]1Cc2cccc(C(=O)O)c2OB1O)c1ccc(P(=O)(O)O)cc1 (stereo partly drawn) [Example 65] ; what MIC value has been reported?
16 to 32 µg/mL

====

Test system: A. baumannii CDC-0045
assayRemarks: microbe, parasite or virus in culture
Format: cell-based
testContext: Acinetobacter baumannii, CDC0045, read-out: MIC, A. baumannii CDC-0045
property: MIC

molecule	MIC
O=C(CN1CCN(C(=O)NC(C(=O)N[C@H]2Cc3ccc(F)c(C(=O)O)c3OB2O)c2cc(F)c(O)c(O)c2Cl)C(=O)C1=O)NCc1cccc(O)c1 (some centres unmarked)	8 to 16 µg/mL

# next molecule below
Suppose we examine the molecule O=C(NCCN1CCN(C(=O)NC(C(=O)N[C@H]2Cc3ccc(F)c(C(=O)O)c3OB2O)c2cc(F)c(O)c(O)c2Cl)C1=O)Nc1ccncc1 (some centres unmarked) ; what MIC value has been reported?
< 1 µg/mL

====

System: N. gonorrhoeae WHO X
assayRemarks: Liquid broth MIC in Fastidious broth
testContext: Neisseria gonorrhoeae, read-out: Minimum Inhibitory Concentration (MIC), N. gonorrhoeae WHO X
property: MIC

compound	targetUnderTest	reported
O=C(NCCN1CCN(C(=O)NC(C(=O)N[C@H]2Cc3ccc(F)c(C(=O)O)c3OB2O)c2cc(F)c(O)c(O)c2Cl)C(=O)C1=O)c1ccccc1 (stereo partly drawn) [Example 207]	N. gonorrhoeae WHO X	> 64 µg/mL

Suppose we examine the compound CN(CCN1CCN(C(=O)N[C@@H](C(=O)N[C@H]2Cc3ccc(F)c(C(=O)O)c3OB2O)c2cc(F)c(O)c(O)c2Cl)C(=O)C1=O)Cc1ccc(N)nc1 [Example 209] ; what MIC value has been reported?
> 64 µg/mL

Please answer likewise for O=C(NCCCN1CCN(C(=O)NC(C(=O)N[C@H]2Cc3ccc(F)c(C(=O)O)c3OB2O)c2cc(F)c(O)c(O)c2Cl)C(=O)C1=O)c1ccc(O)cc1 (stereo partly drawn) [Example 203]
> 64 µg/mL

Please answer likewise for NC(C(=O)N[C@H]1Cc2ccc(F)c(C(=O)O)c2OB1O)c1ccc(P(=O)(O)O)cc1 (stereo partly drawn) [Example 14]
> 64 µg/mL

Please answer likewise for O=C(O)c1cccc2c1OB(O)[C@@H](NC(=O)C(NC(=O)N1CCCNC1=O)c1ccc(P(=O)(O)O)cc1)C2 (stereo partly drawn) [Example 56]
16 to 32 µg/mL

Please answer likewise for O=C(O)c1cccc2c1OB(O)[C@@H](NC(=O)[C@H](NC(=O)[C@@H]1CCCN1)c1ccc(P(=O)(O)O)cc1)C2 [Example 173]
16 to 32 µg/mL
